assayed-system: estrogen receptor (Rattus norvegicus, UniProt P06211)
Construct: ovariectomized rat uterine cytosolic estrogen receptor preparation; from tissue; host or cells: uterine cytosol of ovariectomized Sprague-Dawley rats (immature rats from Sasco are named as uterus source, mature ovariectomized rats)
Sequence (P06211 whole entry): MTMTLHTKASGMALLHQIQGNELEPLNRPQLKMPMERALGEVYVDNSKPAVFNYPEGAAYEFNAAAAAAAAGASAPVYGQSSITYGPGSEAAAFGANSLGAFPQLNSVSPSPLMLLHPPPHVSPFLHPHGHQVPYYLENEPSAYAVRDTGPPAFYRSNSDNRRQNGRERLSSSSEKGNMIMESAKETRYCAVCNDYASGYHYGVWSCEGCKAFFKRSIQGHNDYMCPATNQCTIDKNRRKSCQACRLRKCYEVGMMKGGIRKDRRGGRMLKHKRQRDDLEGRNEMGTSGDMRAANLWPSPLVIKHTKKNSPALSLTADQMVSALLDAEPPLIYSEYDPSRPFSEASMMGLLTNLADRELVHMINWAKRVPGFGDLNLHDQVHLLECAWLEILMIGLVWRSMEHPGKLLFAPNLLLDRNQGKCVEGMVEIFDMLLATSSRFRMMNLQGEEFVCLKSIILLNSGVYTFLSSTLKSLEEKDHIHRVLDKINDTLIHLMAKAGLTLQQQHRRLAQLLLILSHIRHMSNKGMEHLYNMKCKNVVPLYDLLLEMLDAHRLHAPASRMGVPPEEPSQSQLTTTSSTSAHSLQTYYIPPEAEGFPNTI
protocol-text: Receptor binding assay: displacement of [3H]-estradiol from rat uterine cytosol
Parameters: species or system rat (Sprague-Dawley)
condition-set: relative to estradiol = 100%; given as dash with footnote e
measured-metric: RBA (relative binding affinity)

See these solved cases before continuing.
Please give the measured RBA (relative binding affinity) for this compound: COc1ccc([C@H]2[C@@H](c3ccccc3)C2(Cl)Cl)cc1 (relative stereo)
--^e (Less than 0.01%.)

Please give the measured RBA (relative binding affinity) for this compound: COc1ccc(C2(c3ccc(OC)cc3)C(c3ccccc3)C2(Cl)Cl)cc1 (centres unmarked)
--^e (Less than 0.01%.)

Please give the measured RBA (relative binding affinity) for this compound: COc1ccc([C@H]2[C@H](c3ccccc3)C2(Cl)Cl)cc1 (relative stereo)
--^e (Less than 0.01%.)

Please give the measured RBA (relative binding affinity) for this compound: `COc1ccc(C2(c3ccc(OC)cc3)CC2(Cl)Cl)cc1`
--^e (Less than 0.01%.)

Attention now shifts to the item below.
Please give the measured RBA (relative binding affinity) for this compound: `COc1ccc(C2(c3ccc(OC)cc3)C(Cl)(Cl)C23CCCCC3)cc1`
--^e (Less than 0.01%.)
